# Protocol text: The drug is tested on Clostridium symbiosum strain: ATCC14940 for biotransformation. The drug concentrations were measured before and after a 12-h incubation by liquid-chromatography-coupled mass spectrometry (LC–MS)
# Protocol conditions: 2 µM
Measured property: Bacterial Biotransformation

>  <Compound>
CCOC(=O)C1=C[C@]2(CC)CCCN3CCc4c(n1c1ccccc41)[C@@H]32 [VINPOCETINE]

>  <Bacterial Biotransformation>
Compound NOT metabolized

$$$$
>  <Compound>
CC(=O)Oc1ccc(C(c2ccc(OC(C)=O)cc2)c2ccccn2)cc1 [BISACODYL]

>  <Bacterial Biotransformation>
Compound metabolized

$$$$
>  <Compound>
Cc1ccc(S(=O)(=O)NC(=O)NN2CCCCCC2)cc1 [TOLAZAMIDE]

>  <Bacterial Biotransformation>
Compound NOT metabolized

$$$$
>  <Compound>
Cc1ccc(S(=O)(=O)NC(=O)NN2CC3CCCC3C2)cc1 (stereo not drawn) [GLICLAZIDE]

>  <Bacterial Biotransformation>
Compound NOT metabolized

$$$$
>  <Compound>
O=c1n(CCCN2CCN(c3cccc(Cl)c3)CC2)nc2ccccn12 [TRAZODONE]

>  <Bacterial Biotransformation>
Compound NOT metabolized

$$$$
>  <Compound>
O=P(O)(O)O.c1ccc(CN(CC2=NCCN2)c2ccccc2)cc1 [ANTAZOLINE PHOSPHATE]

>  <Bacterial Biotransformation>
Compound NOT metabolized

$$$$
>  <Compound>
CCN1CCCC1CNC(=O)c1cc(S(=O)(=O)CC)c(N)cc1OC (stereo not drawn) [AMISULPRIDE]

>  <Bacterial Biotransformation>
Compound NOT metabolized

$$$$
>  <Compound>
COc1ccc([C@@H]2Sc3ccccc3N(CCN(C)C)C(=O)[C@@H]2OC(C)=O)cc1 [DILTIAZEM]

>  <Bacterial Biotransformation>
Compound metabolized

$$$$
>  <Compound>
Clc1cccc(Cl)c1N=C1NCCN1 [CLONIDINE]

>  <Bacterial Biotransformation>
Compound NOT metabolized

$$$$
>  <Compound>
CC(C)[C@H]1CC[C@H](C(=O)N[C@H](Cc2ccccc2)C(=O)O)CC1 [NATEGLINIDE]

>  <Bacterial Biotransformation>
Compound NOT metabolized

$$$$

Record NS(=O)(=O)c1cc2c(cc1Cl)N=C(CSCc1ccccc1)NS2(=O)=O [BENZTHIAZIDE] . Reported Bacterial Biotransformation: Compound NOT metabolized

Record O=c1[nH]c2ccccc2n1CCCN1CCC(n2c(=O)[nH]c3cc(Cl)ccc32)CC1 [DOMPERIDONE] . Reported Bacterial Biotransformation: Compound NOT metabolized

Record `N[C@@H](Cc1ccc(N(CCCl)CCCl)cc1)C(=O)O` . Reported Bacterial Biotransformation: Compound metabolized

Record CCCCCNC(=N)N/N=C/c1c[nH]c2ccc(OC)cc12.O=C(O)/C=C\C(=O)O [TEGASEROD MALEATE] . Reported Bacterial Biotransformation: Compound NOT metabolized

Record CN1CCN(C2=Nc3ccccc3Oc3ccc(Cl)cc32)CC1.O=C(O)CCC(=O)O [LOXAPINE SUCCINATE] . Reported Bacterial Biotransformation: Compound NOT metabolized

Record C#C[C@]1(O)CC[C@H]2[C@@H]3CCC4=CC(=O)CC[C@@H]4[C@H]3CC[C@@]21CC [LEVONORGESTREL] . Reported Bacterial Biotransformation: Compound NOT metabolized

====

# Protocol conditions: segatella copri, 12 h, 2 µM
# Description: The drug is tested on Prevotella copri strain: DSM18205 for biotransformation. The drug concentrations were measured before and after a 12-h incubation by liquid-chromatography-coupled mass spectrometry (LC–MS)
Measured property: Bacterial Biotransformation

Please review the following examples before continuing.
>  <Molecule>
CNCCC(Oc1ccc(C(F)(F)F)cc1)c1ccccc1 (centres undefined)

>  <Bacterial Biotransformation>
Compound metabolized

$$$$
>  <Molecule>
NC12CC3CC(CC(C3)C1)C2

>  <Bacterial Biotransformation>
Compound NOT metabolized

$$$$
>  <Molecule>
Br.CN(C)CCCC1(c2ccc(F)cc2)OCc2cc(C#N)ccc21 (centres undefined) [CITALOPRAM HYDROBROMIDE]

>  <Bacterial Biotransformation>
Compound NOT metabolized

$$$$
>  <Molecule>
COc1cc2nc(N3CCN(C(=O)c4ccco4)CC3)nc(N)c2cc1OC

>  <Bacterial Biotransformation>
Compound NOT metabolized

$$$$
>  <Molecule>
CC1=C(CC(=O)O)c2cc(F)ccc2/C1=C\c1ccc([S+](C)[O-])cc1 (centres undefined)

>  <Bacterial Biotransformation>
Compound NOT metabolized

$$$$
>  <Molecule>
CC[C@H](C)C(=O)O[C@H]1C[C@@H](C)C=C2C=C[C@H](C)[C@H](CC[C@@H]3C[C@@H](O)CC(=O)O3)[C@H]21

>  <Bacterial Biotransformation>
Compound NOT metabolized

$$$$
>  <Molecule>
COc1ccc2c(c1OC)C(=O)O[C@@H]2[C@H]1c2c(cc3c(c2OC)OCO3)CCN1C

>  <Bacterial Biotransformation>
Compound metabolized

$$$$
>  <Molecule>
CCN(CC)C(=O)/C(C#N)=C/c1cc(O)c(O)c([N+](=O)[O-])c1

>  <Bacterial Biotransformation>
Compound metabolized

$$$$

Record CC1Cc2ccccc2N1NC(=O)c1ccc(Cl)c(S(N)(=O)=O)c1 (centres undefined) [INDAPAMIDE] . Reported Bacterial Biotransformation: Compound NOT metabolized

====

# Protocol conditions: bacteroides thetaiotaomicron, 12 h, 2 µM
# Description: The drug is tested on Bacteroides thetaiotaomicron strain: VPI-5482 for biotransformation. The drug concentrations were measured before and after a 12-h incubation by liquid-chromatography-coupled mass spectrometry (LC–MS)

>  <Compound>
CSc1ccc2c(c1)C(N1CCN(C)CC1)Cc1ccccc1S2.O=C(O)/C=C\C(=O)O (stereo not drawn)

>  <Bacterial Biotransformation>
Compound NOT metabolized

$$$$
>  <Compound>
CC(=O)O[C@H]1C(=O)[C@@]2(C)[C@H]([C@H](OC(=O)c3ccccc3)[C@]3(O)C[C@H](OC(=O)[C@H](O)[C@@H](NC(=O)c4ccccc4)c4ccccc4)C(C)=C1C3(C)C)[C@]1(OC(C)=O)CO[C@@H]1C[C@@H]2O

>  <Bacterial Biotransformation>
Compound NOT metabolized

$$$$
>  <Compound>
CNC(=C[N+](=O)[O-])NCCSCc1ccc(CN(C)C)o1

>  <Bacterial Biotransformation>
Compound NOT metabolized

$$$$

====

# Protocol text: The drug is tested on Clostridium sp. strain: fecal isolate for biotransformation. The drug concentrations were measured before and after a 12-h incubation by liquid-chromatography-coupled mass spectrometry (LC–MS)
# Protocol conditions: 2 µM
Measured property: Bacterial Biotransformation

Please review the following examples before continuing.
>  <Compound>
CCC(C)n1ncn(-c2ccc(N3CCN(c4ccc(OCC5COC(Cn6cncn6)(c6ccc(Cl)cc6Cl)O5)cc4)CC3)cc2)c1=O (configuration not stated) [ITRACONAZOLE]

>  <Bacterial Biotransformation>
Compound metabolized

$$$$
>  <Compound>
CCN(C(C)=O)c1cccc(-c2ccnc3c(C#N)cnn23)c1 [ZALEPLON]

>  <Bacterial Biotransformation>
Compound metabolized

$$$$
>  <Compound>
Cc1nc(Nc2ncc(C(=O)Nc3c(C)cccc3Cl)s2)cc(N2CCN(CCO)CC2)n1.O [DASATINIB]

>  <Bacterial Biotransformation>
Compound metabolized

$$$$
>  <Compound>
CCC(=O)NCC[C@@H]1CCc2ccc3c(c21)CCO3 [RAMELTEON]

>  <Bacterial Biotransformation>
Compound NOT metabolized

$$$$
>  <Compound>
Cc1ccc(/C(=C\CN2CCCC2)c2ccccn2)cc1 [TRIPROLIDINE]

>  <Bacterial Biotransformation>
Compound NOT metabolized

$$$$

Record `Cc1cc2c(cc1S(N)(=O)=O)S(=O)(=O)CCC2` . Reported Bacterial Biotransformation: Compound NOT metabolized

Record COc1ccc(C(CN(C)C)C2(O)CCCCC2)cc1 (configuration not stated) [VENLAFAXINE] . Reported Bacterial Biotransformation: Compound NOT metabolized

Record C=CCN1CC[C@]23c4c5ccc(O)c4O[C@H]2C(=O)CC[C@@]3(O)[C@H]1C5 [NALOXONE] . Reported Bacterial Biotransformation: Compound metabolized

Record CCCCCNC(=N)N/N=C/c1c[nH]c2ccc(OC)cc12.O=C(O)/C=C\C(=O)O [TEGASEROD MALEATE] . Reported Bacterial Biotransformation: Compound NOT metabolized

Record OC(CCN1CCCCC1)(c1ccccc1)C1CCCCC1 (configuration not stated) [TRIHEXYPHENIDYL] . Reported Bacterial Biotransformation: Compound metabolized

Record CC(=O)OCC(=O)[C@@]1(O)[C@@H](C)C[C@H]2[C@@H]3CCC4=CC(=O)C=C[C@]4(C)[C@@]3(F)[C@@H](O)C[C@@]21C [BETAMETHASONE ACETATE] . Reported Bacterial Biotransformation: Compound metabolized

====

# Assayed system: GDSL-like protein (Collinsella aerofaciens)
# Sequence (A4E7D0 whole entry): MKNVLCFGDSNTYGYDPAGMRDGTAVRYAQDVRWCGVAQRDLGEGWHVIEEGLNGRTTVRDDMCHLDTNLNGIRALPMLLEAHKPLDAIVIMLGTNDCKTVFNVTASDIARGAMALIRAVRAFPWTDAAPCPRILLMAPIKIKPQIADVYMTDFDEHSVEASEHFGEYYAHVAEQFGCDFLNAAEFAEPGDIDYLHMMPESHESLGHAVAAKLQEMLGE
# Protocol text: The drug is tested on Collinsella aerofaciens strain: ATCC25986 for biotransformation. The drug concentrations were measured before and after a 12-h incubation by liquid-chromatography-coupled mass spectrometry (LC–MS)
# Assay type: ADME
# Parameters: dose 2 uM
# Protocol conditions: 2 µM

>  <Molecule>
CCN(CC)C(=O)/C(C#N)=C/c1cc(O)c(O)c([N+](=O)[O-])c1

>  <Bacterial Biotransformation>
Compound NOT metabolized

$$$$
>  <Molecule>
COc1ccnc(C[S+]([O-])c2nc3ccc(OC(F)F)cc3[nH]2)c1OC (centres undefined)

>  <Bacterial Biotransformation>
Compound NOT metabolized

$$$$
>  <Molecule>
CCOC(=O)C1=C(C)NC(C)=C(C(=O)OC)C1c1cccc([N+](=O)[O-])c1 (centres undefined)

>  <Bacterial Biotransformation>
Compound NOT metabolized

$$$$
